Tested on: Pancreatic BxPC3
Assay: CellTiter Glo cell viability assay
Type: cell-based, human
Details: Homo sapiens; BxPC-3/CRL-1687; 11 dilutions 3-0.00001 μM; read-out: IC50
pIC50: −log10 of the molar value.
Experimental Readout: pIC50

(I) CCOc1cc(O)cc(/C=C/c2ccc(O)c(O)c2)c1CC=C(C)C
(II) CCOc1cc(O)cc(/C=C/c2ccc(O)c(OC)c2)c1CC=C(C)C
input: Just curious, which one has the larger pIC50 reading, I or II ? Field: selected label. Fill in the label of the entry you choose.
output: II

(a) COc1cc(/C=C/c2cc(O)cc(OC)c2CC=C(C)C)ccc1O
(b) CCOc1cc(O)cc(/C=C/c2ccc(NC=O)c(OC)c2)c1CC=C(C)C
input: Just curious, which one has the larger pIC50 reading, a or b ? Field: selected label. Fill in the label of the entry you choose.
output: b
(b: 6.76, a: 6.03)

Source: patent US20260209152A1
